Origin of measurements: paper PMC12207370

Biological target: biotinylated CD59 (Homo sapiens)
Construct: Recombinant soluble human CD59 with an additional C-terminal cysteine residue
Sequence (P13987 26-102 limits assumed): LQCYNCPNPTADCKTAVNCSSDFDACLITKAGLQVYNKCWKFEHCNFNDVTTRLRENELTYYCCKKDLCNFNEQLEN
Experiment: mRNA-display cyclic peptide screen against CD59-biotin, NGS abundance after 6th selection round
Conditions: counts normalised by total counts of sample Seq II; percentage of the pool, sheet R6
Description: To discover novel non‐protein CD59 ligands, we screened a library of 10^12 cyclic peptides against CD59 using mRNA‐display (Figure 2a).^[ [23], [24], [25], [26], [27], [28], [29] ^] Briefly, an mRNA library was designed in which the start codon was reprogrammed from Met to N‐chloroacetyl‐D‐Tyr (ClAc‐D‐Tyr), followed by 10–12 randomly encoded natural amino acids, a Cys residue, a (GlySer)3 linker, and a stop codon. […]
Consider the following sequences; for each one, report its Percentage Seq II.
Answers are plain numbers, in %.

Example cases with answers are listed next.
sequence_record=LQPPDRSCLPKI tested_target="biotinylated CD59 (Homo sapiens)" result_type="Percentage Seq II" quantitative_readout=0.030
sequence_record=WVYGSSTFRYQ tested_target="biotinylated CD59 (Homo sapiens)" result_type="Percentage Seq II" quantitative_readout=0.030
sequence_record=CFKHRLGTDSA tested_target="biotinylated CD59 (Homo sapiens)" result_type="Percentage Seq II" quantitative_readout=0.086
sequence_record=CFVNRLSDSLSL tested_target="biotinylated CD59 (Homo sapiens)" result_type="Percentage Seq II" quantitative_readout=0.070
sequence_record=CFSHRPGPSI tested_target="biotinylated CD59 (Homo sapiens)" result_type="Percentage Seq II" quantitative_readout=0.132
sequence_record=SAWGNRQVQYY tested_target="biotinylated CD59 (Homo sapiens)" result_type="Percentage Seq II" quantitative_readout=0.116
sequence_record=HCWVRGSRNYA tested_target="biotinylated CD59 (Homo sapiens)" result_type="Percentage Seq II" quantitative_readout=0.028
sequence_record=FKYGNSNFVRG tested_target="biotinylated CD59 (Homo sapiens)" result_type="Percentage Seq II" quantitative_readout=0.039

Quick one: give me Percentage Seq II for each item below, same order please.
1. CRGNRFYQLSFH
2. CFSTRLSRSYGT
3. CFYTRIDAFST

A)
1. 0.186
2. 0.026
3. 0.079

Quick one: give me Percentage Seq II for each item below, same order please.
1. FVTGNRGHTRG
2. CFSYRIRSAYDL
3. GYLNECHTLYTQ
4. ISRGDARYTWG

A)
[0.016, 0.030, 0.051, 0.023]

---

Biological target: biotinylated CD59 (Homo sapiens, UniProt P13987)
Construct: Recombinant soluble human CD59 with an additional C-terminal cysteine residue
Sequence (P13987 26-102 limits assumed): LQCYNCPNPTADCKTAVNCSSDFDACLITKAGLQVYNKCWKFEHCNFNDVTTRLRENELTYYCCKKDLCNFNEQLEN
Assay: mRNA-display cyclic peptide screen against CD59-biotin, NGS abundance after 6th selection round
Conditions: percentage of the pool averaged across the two sequencing samples, sheet R6
Quick rule for you: Percentage Average at 0.03% or higher means true, lower means false.

Before answering, review these 2 worked examples.
sequence_record=FIFGNRNWTFG group=false
sequence_record=QPFWGCRTVAYS group=true

Q) Hi team, for CFVNRLRSAESR , is the recorded Percentage Average at or above 0.03%?
A) true

Q) Hi team, for CFSKRIAPGAQ , is the recorded Percentage Average at or above 0.03%?
A) false

Q) Hi team, for WIRGSRWWTQS , is the recorded Percentage Average at or above 0.03%?
A) true

Q) Hi team, for FVTGNRDYTRG , is the recorded Percentage Average at or above 0.03%?
A) true

---

Consider the following sequences; for each one, report its Percentage Seq II.
Target: biotinylated CD59 (Homo sapiens, UniProt P13987)
Construct: Recombinant soluble human CD59 with an additional C-terminal cysteine residue
Sequence (P13987 26-102 limits assumed): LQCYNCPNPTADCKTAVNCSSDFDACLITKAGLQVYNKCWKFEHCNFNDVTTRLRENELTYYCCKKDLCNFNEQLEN
Test: mRNA-display cyclic peptide screen against CD59-biotin, NGS abundance after 6th selection round
Settings: counts normalised by total counts of sample Seq II; percentage of the pool, sheet R6
Numbers only, in %.

Example cases with answers are listed next.
sequence_record=IALGDRTFSFG tested_target="biotinylated CD59 (Homo sapiens, UniProt P13987)" quantitative_readout=0.334
sequence_record=FVRGDLYSVFG tested_target="biotinylated CD59 (Homo sapiens, UniProt P13987)" quantitative_readout=0.026
sequence_record=SVGGSRSWTRG tested_target="biotinylated CD59 (Homo sapiens, UniProt P13987)" quantitative_readout=0.146

Quick one: give me Percentage Seq II for each item below, same order please.
1. SAWGNRQTQYY
2. LCSVRGSNDWI
3. YIIGSSDYTRG
4. HVFGNRSFTRG
5. AVAGSRHWAWG
6. ASWLTAPCYV
7. CFTNRLDNSST
8. CFRYRVTPTSY

A)
1: 1.160; 2: 0.074; 3: 0.039; 4: 5.834; 5: 0.039; 6: 0.019; 7: 0.067; 8: 0.014

Quick one: give me Percentage Seq II for each item below, same order please.
1. CFQNRVTSDSAK
2. YAWGNRNNAYY
3. YIVGSSDYTRG
4. LYSHPRSLCSFS
5. CFTQRIASGSK
6. IQSGSQSWSRG

A)
1: 0.142; 2: 0.049; 3: 0.388; 4: 0.091; 5: 0.021; 6: 0.035

---

Target: biotinylated CD59 (Homo sapiens)
Construct: Recombinant soluble human CD59 with an additional C-terminal cysteine residue
Sequence (P13987 26-102 limits assumed): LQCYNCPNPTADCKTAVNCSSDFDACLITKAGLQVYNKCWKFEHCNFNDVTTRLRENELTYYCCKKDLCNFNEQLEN
Experiment: mRNA-display cyclic peptide screen against CD59-biotin, NGS abundance after 6th selection round
Settings: counts normalised by total counts of NGS sample Seq I, sheet R6
Consider the following sequences; for each one, report its Percentage of the pool, Seq I.
# answer = value followed by unit

Quick one: give me Percentage of the pool, Seq I for each item below, same order please.
1. YLSGSSNFARG
2. CFLTRASQLSGT
3. IARGDWNHQFF
4. GRLNECHVIRP
5. CFAARLSNGDT
6. CFSRRVTYPHQV

A)
1: 0.011%; 2: 0.010%; 3: 0.013%; 4: 0.010%; 5: 0.017%; 6: 0.007%

Quick one: give me Percentage of the pool, Seq I for each item below, same order please.
1. DYNRIVWGRGNAAAAAAARTGGG
2. FVRGDLYPVLG
3. FARGDWNHQFY
4. VLCHRWHVGSHR
5. FVRGDLYSILG
6. HVFGNRSYTRG
7. LWGTHSYVYYRP

A)
1. 0.020%
2. 0.015%
3. 0.027%
4. 0.012%
5. 0.011%
6. 0.011%
7. 0.011%

Quick one: give me Percentage of the pool, Seq I for each item below, same order please.
1. FTRGNSTSVLF
2. RTCHLRHDGPHA
3. SAWGNRQIQYH
4. CFAYRTHTTAV
5. SAWGNRYIAYY
6. GRYNECHFITS

A)
1. 0.012%
2. 0.013%
3. 0.015%
4. 0.014%
5. 0.011%
6. 0.013%

Quick one: give me Percentage of the pool, Seq I for each item below, same order please.
1. WRDRFDQCIL
2. DCWVRGSRNYT
3. CYGDRTFIYAWS
4. TFRSRTSCGAV

A)
1. 0.014%
2. 0.014%
3. 0.012%
4. 0.012%

Quick one: give me Percentage of the pool, Seq I for each item below, same order please.
1. CFAGRLTIDAG
2. CFTGRLTIDAV
3. TLSTNRDLIRLPAAAAAAARTGGG
4. SAWGNRQIQCY
5. CAWGNRYTAYY

A)
1. 0.013%
2. 0.006%
3. 0.014%
4. 0.013%
5. 0.016%

Quick one: give me Percentage of the pool, Seq I for each item below, same order please.
1. CFSRRLTVGAI
2. WRDRFDQCAL
3. PWTWGNRSSVRG
4. ASWLPSPCKFS
5. CFVLRRNFEGT
6. FARGDRNHQFY
7. RVGSQFCAQL
8. HCRVRGSRNYT

A)
0.009%
0.015%
0.011%
0.017%
0.012%
0.014%
0.00754%
0.009%

Quick one: give me Percentage of the pool, Seq I for each item below, same order please.
1. LLGARDYVRLWH
2. SAWGNRKIQYY
3. FRGRNDICTH
4. CFLKRDRSASI
5. DSRNQCHTWKT
6. SYGGRTFIYAWS
7. FIRGNSTSVLY

A)
["0.009%", "0.013%", "0.017%", "0.013%", "0.020%", "0.014%", "0.013%"]

Quick one: give me Percentage of the pool, Seq I for each item below, same order please.
1. PAWGNRQIQYY
2. FVRGNRYSVLG
3. HVFGNRPFTRG
4. SAWGDRQIQYY
5. SCSEWRRGTRS

A)
1. 0.013%
2. 0.015%
3. 0.017%
4. 0.015%
5. 0.010%
